Biological target: UniProtKB P00591
Sequence (whole entry): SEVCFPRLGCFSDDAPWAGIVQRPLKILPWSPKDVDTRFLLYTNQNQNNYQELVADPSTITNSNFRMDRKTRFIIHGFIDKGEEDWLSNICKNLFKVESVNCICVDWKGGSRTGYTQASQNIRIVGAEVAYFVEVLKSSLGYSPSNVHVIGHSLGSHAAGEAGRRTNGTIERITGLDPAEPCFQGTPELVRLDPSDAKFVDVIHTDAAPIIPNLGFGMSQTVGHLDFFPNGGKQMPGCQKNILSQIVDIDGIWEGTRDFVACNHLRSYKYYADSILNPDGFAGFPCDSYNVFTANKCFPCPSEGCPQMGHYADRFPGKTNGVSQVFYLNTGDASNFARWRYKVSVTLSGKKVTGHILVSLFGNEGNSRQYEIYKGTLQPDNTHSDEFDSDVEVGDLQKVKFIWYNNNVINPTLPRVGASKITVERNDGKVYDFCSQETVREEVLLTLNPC
Experiment: Inhibition of porcine pancreatic lipase at 1 to 20 uM using p-nitrophenyl butyrate as substrate pretreated for 15 mins followed by substrate addition and measured after 60 mins
Active and inactive are the calls of the source. No cut-off for these calls is given here.
Reply using exactly one outcome from active, inactive

Prompt: # lookup: test call for C=C1CC[C@H]2C(C)(C)CCC[C@]2(C)C1C/C=C(/C=O)CC(=O)OCc1cn(CC(=O)c2ccc(C#N)cc2)nn1 (some centres not stated)
Completion: active

Prompt: # lookup: test call for C=C1CC[C@H]2C(C)(C)CCC[C@]2(C)C1C/C=C(/C=O)CC(=O)OCc1cn(CC(=O)c2ccc(Br)cc2)nn1 (some centres not stated)
Completion: inactive

Prompt: # lookup: test call for C=C1CC[C@H]2C(C)(C)CCC[C@]2(C)C1C/C=C(/C=O)CC(=O)OCc1cn(Cc2cc(OC)ccc2Br)nn1 (some centres not stated)
Completion: active

Prompt: # lookup: test call for C=C1CC[C@H]2C(C)(C)CCC[C@]2(C)C1C/C=C(/C=O)CC(=O)OCc1cn(CC(=O)c2ccc(F)cc2)nn1 (some centres not stated)
Completion: inactive

Prompt: # lookup: test call for C=C1CC[C@H]2C(C)(C)CCC[C@]2(C)C1C/C=C(/C=O)CC(=O)OCc1cn(Cc2ccccc2Cl)nn1 (some centres not stated)
Completion: inactive

Prompt: # lookup: test call for C=C1CC[C@H]2C(C)(C)CCC[C@]2(C)C1C/C=C(/C=O)CC(=O)OCc1cn(Cc2ccccc2)nn1 (some centres not stated)
Completion: active

Prompt: # lookup: test call for C=C1CC[C@H]2C(C)(C)CCC[C@]2(C)C1C/C=C(/C=O)CC(=O)OCc1cn(CC(=O)c2ccc(Cl)cc2)nn1 (some centres not stated)
Completion: inactive
